# ASSAY_METHOD_TEXT: Membrane permeability test using Caco-2 cells with preincubation
# Type: in vitro ADME
# COND: Caco-2; preincubation 20 to 24 hours; Apical FaSSIF/HBSS pH 6.0, Basal HBSS 4% BSA pH 7.4; 180 minutes; read-out: Caco2 Papp
Starred links: 1 amine or outer side, 2 acyl side, 3 side chain; linkers in the order of their positions; H or OH if unused. Positions of bridges follow the written chain, without caps; N, C: chain ends. Non-standard residues stand in square brackets, D forms with d. Residues, ends and D or L forms follow the SMILES beside them. *: point of attachment. NMedβ3hAla = C[C@H](CC(=O)[*:2])N(C)[*:1]; NMeF = CN[C@@H](Cc1ccccc1)C(=O)O; NMeI = CC[C@H](C)[C@H](NC)C(=O)O; hPhe = N[C@@H](CCc1ccccc1)C(=O)O; NMeβAla = CN(CCC(=O)[*:2])[*:1]; NMeD = CN[C@@H](CC(=O)O)C(=O)O; NMeL = CN[C@@H](CC(C)C)C(=O)O; NMeV = CN[C@H](C(=O)O)C(C)C; d(β3hA) = C[C@@H](N)CC(=O)O; NMeAbu = CC[C@H](NC)C(=O)O; NMeA = CN[C@@H](C)C(=O)O; Piperidide = C1CCN(*)CC1; Abu = CC[C@H](N)C(=O)O; Sar = CNCC(=O)O; tBu = CC(C)(C)*
MEASURED_METRIC: Papp A→B

Input: Would you kindly share the measured Papp A→B for CC[C@H](C)[C@@H]1NC(=O)[C@H](C)N(C)C(=O)C[C@@H](C(=O)N2CCCCC2)NC(=O)[C@H](CC)N(C)C(=O)[C@H](COC(C)(C)C)NC(=O)[C@H](CC(C)C)N(C)C(=O)[C@H](C)N(C)C(=O)[C@H](CC(C)C)N(C)C(=O)[C@H](Cc2ccccc2)N(C)C(=O)CN(C)C(=O)[C@H]([C@@H](C)O)NC(=O)[C@H](CC(C)C)N(C)C(=O)[C@H](Cc2ccccc2)N(C)C1=O [pd121] ([NMeA]I[NMeF][NMeL]T[Sar][NMeF][NMeL][NMeA][NMeL]S(tBu)[NMeAbu]D-Piperidide; lactam N-13) ?
Output: 1.02 ×10⁻⁶ cm/s

Input: Which measured Papp A→B value corresponds to CC[C@@H]1NC(=O)[C@H](CC(C)C)N(C)C(=O)[C@H](C)NC(=O)[C@@H]2CCCN2C(=O)[C@H](CC)N(C)C(=O)[C@H](CC(C)C)N(C)C(=O)CN(C)C(=O)[C@H](Cc2ccccc2)N(C)C(=O)[C@H]([C@@H](C)CC)NC(=O)CCN(C)C(=O)[C@H](C(C)C)N(C)C(=O)[C@H](COC(C)(C)C)NC(=O)[C@H](CC(C)C)N(C)C(=O)C[C@@H](C(=O)N2CCCCC2)N(C)C1=O [pd083] ([NMeL]S(tBu)[NMeV][NMeβAla]I[NMeF][Sar][NMeL][NMeAbu]PA[NMeL][Abu][NMeD]-Piperidide; lactam N-14) ?
Output: 0.04 ×10⁻⁶ cm/s

Input: What value of Papp A→B has been recorded for this entry: CC[C@H](C)[C@@H]1NC(=O)[C@H](CCc2ccccc2)NC(=O)[C@H](CC(C)C)N(C)C(=O)[C@H](C)N(C)C(=O)[C@H](Cc2ccccc2)N(C)C(=O)[C@@H]2CCCN2C(=O)[C@H]([C@@H](C)CC)NC(=O)[C@H](CC(C)C)N(C)C(=O)CCN(C)C(=O)C[C@@H](C)NC(=O)[C@H](CC(C)C)N(C)C(=O)[C@H]([C@@H](C)O)NC(=O)[C@H](C)N(C)C1=O [pd133] (cyclo(I[NMeA]T[NMeL][d(β3hA)][NMeβAla][NMeL]IP[NMeF][NMeA][NMeL][hPhe]))
Output: 0.53 ×10⁻⁶ cm/s

Input: Need Papp A→B, item CC[C@H](C)[C@@H]1NC(=O)[C@H](CC(C)C)N(C)C(=O)[C@H](C)N(C)C(=O)[C@H](C)NC(=O)C[C@@H](C)N(C)C(=O)[C@H](CC(C)C)N(C)C(=O)[C@H](C)N(C)C(=O)CN(C)C(=O)[C@H]([C@@H](C)O)NC(=O)[C@H](Cc2ccccc2)N(C)C(=O)[C@H](CC(C)C)N(C)C(=O)[C@H](C(C)C)NC(=O)[C@H]([C@@H](C)CC)N(C)C1=O [pd148] (cyclo(A[NMeA][NMeL]I[NMeI]V[NMeL][NMeF]T[Sar][NMeA][NMeL][NMedβ3hAla]))
Output: 0.12 ×10⁻⁶ cm/s
